Protocol Text: qHTS drug screen for cell cycle checkpoint inhibitors in PARPi-resistant BRCA-mutant ovarian cancer cell lines. (AID 1963452)
Condition Details: PEO1/OlaR viability, CellTiter-Glo luminescence, 96 h; measured here: PEO4 Z-AUC; stronger effect = lower value
Recorded Z-AUC, one value per entry.
Number, no unit, nothing else.

Answered cases to consult:
1. NC(=O)c1cccc2cn(-c3ccc([C@@H]4CCCNC4)cc3)nc12 ... 0.435
2. c1nc2nc(Nc3ccc(N4CCOCC4)cc3)nc(NC3CCCCC3)c2[nH]1 ... -0.143
3. O=C(NCCS(=O)(=O)c1ccc(C(F)(F)F)cn1)c1ccc(Cl)cc1 ... 0.479
4. CC(C)(O)c1cc2nc(-c3cnc(N)nc3)nc(N3CCOCC3)c2s1 ... -1.8
5. O=C(Nc1cc(C(F)(F)F)cc(C(F)(F)F)c1)c1cc(Cl)ccc1O ... -1.54

Memo: `Nc1nc(NCCNc2ncc(-n3ccnc3)c(-c3ccc(Cl)cc3Cl)n2)ccc1[N+](=O)[O-]` , reported Z-AUC: 0.221

In plain terms, `c1cc(-c2cnn3cc(-c4ccc(OCCN5CCCCC5)cc4)cnc23)ccn1` has a documented Z-AUC of 0.377

====

Test system: HaCat
Protocol Text: Cytotoxic Profiling of Annotated Libraries Using Quantitative High-Throughput Screening (AID 1296008); also: % is scaled to controls: 0 for no effect and ±100 for the full control effect
Condition Details: Five cell lines viability, CellTiter-Glo ATP luminescence, 48-72 h; stronger effect = lower value
Results filed as inconclusive are left out.
Result Type: max response (%)
# unit: % | format: bare number

Examples with their reported max response follow.
1) CCCCCN(CCC12CC3CC(CC(C3)C1)C2)C(=O)NCCCc1ccncc1 ... -32
2) CS(=O)(=O)c1ccc(-c2cnc(N)c(C(=O)Nc3ccccc3)n2)cc1 ... -14.1

The compound listed as CCOc1ccccc1OCCNC(C)Cc1ccc(OC)c(S(N)(=O)=O)c1 (stereo not given) has a reported max response of -9.05

# max response (compound: `Cc1coc2c1C(=O)C(=O)c1c-2ccc2c1CCCC2(C)C` ) is -3.22

Documented max response of `O=C(C=Cc1c(C(=O)O)[nH]c2cc(Cl)cc(Cl)c12)Nc1ccccc1` : -0.315

====

Protocol Text: qHTS profiling of the MIPE4 collection as inhibitors of Plasmodium falciparum (HB3) proliferation (AID 743347);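 also: plate controls were DMSO vehicle wells for no effect and artemisinin wells for full effect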
Condition Details: P. falciparum HB3 in erythrocytes, SYBR Green DNA, 72 h; at 28.5 µM (top of the series) unless noted
Method: Plasmodium falciparum is a virulent malarial parasite that kills 1-2 million people worldwide each year. […] Because mature erythrocytes lack DNA, only Plasmodium-derived DNA is detected. The SYBR Green viability assay was adapted from a method described previously (Plouffe et al., 2008). […] The following morning, fluorescence intensity at 485(14) nm excitation and 535(25) nm emission wavelengths was measured on an EnVision (Perkin Elmer) plate reader. […]
Result Type: growth, % of control (%)
Report the figure in % without appending any unit label.

The examples below pair each entry with its known result.
1) N#CCNC(=O)c1ccc(-c2ccnc(Nc3ccc(N4CCOCC4)cc3)n2)cc1 ... 4.94
2) COc1ccc2c(OCc3nnc4ccc(-c5ccccc5)nn34)ccnc2c1 ... 59.2
3) Cc1cc(N2CCOCC2)cc2[nH]c(-c3c(NC[C@@H](O)c4cccc(Cl)c4)cc[nH]c3=O)nc12 ... 3.57
4) CN[C@H]1CCc2cc(OC)c(OC)c(OC)c2-c2ccc(OC)c(=O)cc21 ... 90.6
5) CC(=O)OCC(=O)[C@@]1(O)[C@H](C)C[C@H]2[C@@H]3C=C(C)C4=Cc5c(cnn5-c5ccccc5)C[C@]4(C)[C@@H]3[C@@H](O)C[C@@]21C ... 10.8
6) CCCCOc1c(C(=O)c2c(F)cc(C)cc2F)cnc2n[nH]cc12 ... 92.5

Lab book: growth, % of control of `Cc1cc(Nc2nc(N[C@@H](C)c3ccc(F)cc3)c(C#N)cc2F)n[nH]1` noted as 6.34

growth, % of control measured on `CCN1CCN(Cc2ccc(-c3cc4c(N[C@H](C)c5ccccc5)ncnc4[nH]3)cc2)CC1` = 8.9

# molecule CCOc1ccccc1OCCNC(C)Cc1ccc(OC)c(S(N)(=O)=O)c1 (centres undefined) ; its growth, % of control = 90.8
